- Tested on: L. infantum promastigotes
- assay method text: Promastigote assay (resazurin viability)
- Format: cell-based, Leishmania infantum
- stated conditions: Leishmania infantum; 48 h, resazurin; read-out: L. infantum IC50 Promastigotes
We begin with a simple list: items and their reported IC50.
Give the value in µM but do not write µM after it.

Cc1cc(F)ccc1N1CCC(NC(Cn2ccnc2)c2ccccc2)CC1 (stereo not shown) : 0.43
Cc1ccccc1CN1CCC(CN(Cc2cccnc2)Cc2nc(C(C)C)cs2)CC1 : 3.95
CCCCC(NC1CCN(c2ccccc2F)CC1)c1cccnc1 (stereo not shown) : 0.037

Quote IC50 with test system L. infantum promastigotes for Cc1ccccc1CN1CCC(CN(Cc2cccnc2)Cc2cc(CC(C)C)[nH]n2)CC1
7.85

Quote IC50 with test system L. infantum promastigotes for O=C(Nc1ccc(Cl)cn1)N1CCCCC1c1cccnc1 (stereo not shown)
0.49

Quote IC50 with test system L. infantum promastigotes for OC(COc1ccc(Br)cc1)Cn1ccnc1 (stereo not shown)
10.5

---

- assay method text: Experimental determination of distribution coefficient (eLogD), chromatographic
- Type: physicochemical
- stated conditions: Supelco Ascentis Express RP Amide HPLC column; pH 7.4, chromatographic retention method
reported property: chromatographic logD
Please reply with the number alone, leaving off any unit.

Example entries and their recorded answers appear below.
O=C(Nc1ccc(Cl)cn1)N1CCCCC1c1cccnc1 (stereo not drawn) [LC-74] : 2.39
CCCCC(NC1CCN(c2ccccc2F)CC1)c1cccnc1 (stereo not drawn) [LC-61] : 4.07

Let's switch to this compound now.
For the compound Cc1cc(F)ccc1N1CCC(NC(Cn2ccnc2)c2ccccc2)CC1 (stereo not drawn) [LC-60] , give its measured chromatographic logD value.
4.45

---

We begin with a simple list: items and their reported Selectivity index Intracellular.
- Tested on: intracellular L. infantum amastigotes
- assay method text: Intracellular assay in infected THP-1-derived macrophages
- Assay type: cell-based, Leishmania infantum
- stated conditions: SI = CC50/IC50

Example entries and their recorded answers appear below.
Fc1ccc(N2CCC(NCC(c3cccnc3)N3CCCCC3)CC2)cc1F (stereo not drawn) : >24.7
O=C(Cc1ccccc1)NC(c1ccc(Cl)cc1)c1cccnc1 (stereo not drawn) : >2.46
Cc1ccccc1CN1CCC(CN(Cc2cccnc2)Cc2nc(C(C)C)cs2)CC1 : 4.13
Cc1ccccc1CN1CCC(CN(Cc2cccnc2)Cc2cc(CC(C)C)[nH]n2)CC1 : 4.48
O=C1OCc2ccc(NC(=O)N3CCCCC3c3cccnc3)cc21 (stereo not drawn) : >20.5

Quote Selectivity index Intracellular with test system intracellular L. infantum amastigotes for OC(COc1ccc(Br)cc1)Cn1ccnc1 (stereo not drawn)
>14.8

---

We begin with a simple list: items and their reported Papp at 5 h, 10 μM.
- assay method text: Parallel artificial membrane permeability assay (PAMPA)
- Format: in vitro ADME
- stated conditions: PAMPA; donor pH 6.5, acceptor pH 7.4, 5 h, 37 °C; read-out: PAMPA Pe
Give the value in ×10⁻⁶ cm/s but do not write ×10⁻⁶ cm/s after it.

Example entries and their recorded answers appear below.
CCCCC(NC1CCN(c2ccccc2F)CC1)c1cccnc1 (stereo not drawn) : 4.86
O=C(Nc1ccc(Cl)cn1)N1CCCCC1c1cccnc1 (stereo not drawn) : 10.8

For the molecule Cc1cc(F)ccc1N1CCC(NC(Cn2ccnc2)c2ccccc2)CC1 (stereo not drawn) , give its measured Papp at 5 h, 10 μM value.
6.36

---

- Tested on: L. infantum promastigotes
- assay method text: Promastigote assay (resazurin viability)
- Format: cell-based, Leishmania infantum
- stated conditions: Leishmania infantum; 48 h, resazurin; read-out: L. infantum IC50 Promastigotes
pIC50: −log10 of the molar value.
reported property: pIC50

CC(C)n1cc(C(=O)NC(c2ccc(Cl)cc2)c2cccnc2)cn1 (stereo not drawn) : < 4.70
O=C(NCCc1cnc[nH]1)c1cc(-c2ccccc2)nc2ccccc12 : < 4.70

Let's switch to this compound now.
For the compound CC(C)N1CCC(C(=O)NC(c2ccc(Cl)cc2)c2cccnc2)CC1 (stereo not drawn) , give its measured pIC50 value.
< 4.70

Values from paper PMC13080969
